Sourced from patent US9340555B2

- System: Rabbit Eye VEGF Permeability
- assay_text: Rabbit Eye VEGF Permeability Model
- Assay type: in vivo
measurement_name: In Vivo Rabbit Eye VEGF Permeability

Query for Rabbit Eye VEGF Permeability: what In Vivo Rabbit Eye VEGF Permeability does the record show for `COC(=O)CNCCCNC(=O)c1cc2nccc(Oc3ccc(NC(=O)Nc4cc(C)ccc4F)cc3)c2s1` ?
Efficacious

Request - read-out In Vivo Rabbit Eye VEGF Permeability | tested on Rabbit Eye VEGF Permeability | molecule `CCNC(=O)[C@H](CCC(=O)O)NC(=O)c1cc2nccc(Oc3ccc(NC(=O)Nc4cc(C)ccc4F)c(F)c3)c2s1`
Efficacious

Notebook: pull reported In Vivo Rabbit Eye VEGF Permeability for Rabbit Eye VEGF Permeability, entry `Cc1ccc(F)c(NC(=O)Nc2ccc(Oc3ccnc4cc(C(=O)NCCCN5CCOCC5)sc34)cc2F)c1`
Efficacious

* * *

What follows is a record of IC50 for PDGFRβ (Homo sapiens (Human)).
Numbers only here, please. The scale is nM.

Request - read-out IC50 | tested on PDGFRβ (Homo sapiens (Human)) | molecule `Cc1ccoc1C(=O)Nc1cccc(Oc2ccnc3cc(C(=O)NCCc4nn[nH]n4)sc23)c1`
323

Notebook entry, PDGFRβ (Homo sapiens (Human)) assay: IC50 of Cc1ccc(F)c(NC(=O)Nc2ccc(Oc3ccnc4cc(C(=O)NCCCN5CCCC(CO)C5)sc34)cc2)c1 (stereo not shown) = ?
10

For PDGFRβ (Homo sapiens (Human)), provide IC50 of `COC(=O)CNCCCNC(=O)c1cc2nccc(Oc3cccc(NC(=O)c4occc4C)c3)c2s1` please.
238

IC50 of `Cc1ccc(F)c(NC(=O)Nc2ccc(Oc3ccnc4cc(C(=O)NCCCN5CCCC5)sc34)cc2)c1` on PDGFRβ (Homo sapiens (Human))?
16

Short answer please: IC50, PDGFRβ (Homo sapiens (Human)), entry `COC(=O)CN(CCNC(=O)c1cc2nccc(Oc3ccc(NC(=O)Nc4cc(C)ccc4F)c(F)c3)c2s1)CC(=O)OC`
17

Please state recorded IC50 (tested on PDGFRβ (Homo sapiens (Human))) of `COC(=O)CN(CCCNC(=O)c1cc2nccc(Oc3ccc(NC(=O)Nc4cc(C)ccc4F)cc3)c2s1)CC(=O)OC`
Sequence (P09619 33-1106, species assumed): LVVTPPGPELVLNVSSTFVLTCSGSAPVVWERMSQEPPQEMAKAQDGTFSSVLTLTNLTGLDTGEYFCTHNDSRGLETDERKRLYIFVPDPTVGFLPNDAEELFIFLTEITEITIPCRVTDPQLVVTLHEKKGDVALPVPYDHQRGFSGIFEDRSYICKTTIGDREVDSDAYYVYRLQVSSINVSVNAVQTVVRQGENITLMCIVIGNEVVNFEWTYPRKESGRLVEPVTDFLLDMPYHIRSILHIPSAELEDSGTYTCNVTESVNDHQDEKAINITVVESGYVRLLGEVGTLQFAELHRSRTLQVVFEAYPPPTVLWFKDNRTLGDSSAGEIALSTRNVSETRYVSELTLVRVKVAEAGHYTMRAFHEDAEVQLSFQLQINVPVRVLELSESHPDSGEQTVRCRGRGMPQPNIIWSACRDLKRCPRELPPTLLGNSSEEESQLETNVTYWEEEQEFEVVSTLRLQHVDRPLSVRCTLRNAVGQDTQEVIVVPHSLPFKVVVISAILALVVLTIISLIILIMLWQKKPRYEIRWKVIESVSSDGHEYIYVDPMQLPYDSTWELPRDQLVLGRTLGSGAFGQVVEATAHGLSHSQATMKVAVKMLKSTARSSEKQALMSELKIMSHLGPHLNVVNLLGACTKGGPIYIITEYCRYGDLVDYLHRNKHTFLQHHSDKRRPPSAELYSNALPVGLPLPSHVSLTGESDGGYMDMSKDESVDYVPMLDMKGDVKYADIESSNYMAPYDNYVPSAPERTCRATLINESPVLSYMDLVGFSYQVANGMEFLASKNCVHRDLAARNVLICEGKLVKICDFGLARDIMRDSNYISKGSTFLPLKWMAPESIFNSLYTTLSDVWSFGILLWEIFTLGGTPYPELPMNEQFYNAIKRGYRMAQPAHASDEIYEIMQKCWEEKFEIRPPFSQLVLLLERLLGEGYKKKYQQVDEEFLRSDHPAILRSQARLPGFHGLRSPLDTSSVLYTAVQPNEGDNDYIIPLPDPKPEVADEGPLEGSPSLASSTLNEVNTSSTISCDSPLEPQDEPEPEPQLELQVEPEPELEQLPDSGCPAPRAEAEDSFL
14

// lookup IC50 | system=PDGFRβ (Homo sapiens (Human)) | key= `CCN(CC)CCNC(=O)c1cc2nccc(Oc3ccc(NC(=O)Nc4cc(C)ccc4F)cc3)c2s1`
13

Param readout = IC50; param system = PDGFRβ (Homo sapiens (Human)); param query = `Cc1ccc(F)c(NC(=O)Nc2ccc(Oc3ccnc4cc(C(=O)NCCNC(=O)OC(C)(C)C)sc34)cc2F)c1` ; response: value
69

Could you share what IC50 was measured for `CCNC(=O)c1cc2nccc(Oc3cccc(NC(=O)c4occc4C)c3)c2s1` , tested on PDGFRβ (Homo sapiens (Human))?
191

Request body: readout IC50, system PDGFRβ (Homo sapiens (Human)), query `Cc1ccoc1C(=O)Nc1cccc(Oc2ccnc3cc(C(=O)O)sc23)c1` . Return the value.
920

# returns recorded IC50 (system: PDGFRβ (Homo sapiens (Human))) for `COC(=O)CNCCNC(=O)c1cc2nccc(Oc3ccc(NC(=O)Nc4cc(C)ccc4F)c(F)c3)c2s1`
13

Identify the measured IC50 of `Cc1ccc(F)c(NC(=O)Nc2ccc(Oc3ccnc4cc(C(=O)NCCCN5CCN(C)CC5)sc34)cc2F)c1` for PDGFRβ (Homo sapiens (Human)).
11

Hi! What's the reported IC50 for `Cc1ccoc1C(=O)Nc1cccc(Oc2ccnc3cc(C(=O)NO)sc23)c1` on PDGFRβ (Homo sapiens (Human))?
277
